# tested-target: recombinant Falcipain-2 (FP-2) (Plasmodium falciparum, UniProt Q8I6U4)
# Construct: made in house
# Sequence (Q8I6U4 244-484): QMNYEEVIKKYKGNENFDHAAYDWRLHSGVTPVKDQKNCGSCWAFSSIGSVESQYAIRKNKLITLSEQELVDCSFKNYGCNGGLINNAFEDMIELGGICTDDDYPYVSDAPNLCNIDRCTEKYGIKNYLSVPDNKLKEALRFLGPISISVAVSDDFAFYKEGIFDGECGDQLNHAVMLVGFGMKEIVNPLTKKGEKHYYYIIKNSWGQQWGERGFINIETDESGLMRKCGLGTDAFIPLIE
# assay-overview: Falcipain-2 enzyme inhibition assay (fluorogenic substrate Z-Leu-Arg-AMC)
# Type: biochemical
# assay-context: pH 5.5, compound at 10 μM; FP-2 30 nM, pH 5.5, 30 min preincubation, substrate 25 μM; read-out: Inhibition rate at 10 μM (%)
Where inhibition at 10 µM equals or exceeds 90%, the correct label is criterion met; where it does not, the label is criterion not met.

Before answering, review these 5 worked examples.
INSERT INTO assay_data (smiles_record, tested_target, group_label) VALUES
  ('C=CCn1c(SCC(=O)Nc2sc3c(c2C(N)=O)CCC3)nc2sc3c(c2c1=O)CCCC3', 'recombinant Falcipain-2 (FP-2) (Plasmodium falciparum, UniProt Q8I6U4)', 'criterion not met'),
  ('NC(=O)c1c(NC(=O)CSc2nc3scc(-c4ccccc4)c3c(=O)n2-c2ccc([N+](=O)[O-])cc2)sc2c1CCC2', 'recombinant Falcipain-2 (FP-2) (Plasmodium falciparum, UniProt Q8I6U4)', 'criterion not met'),
  ('C=CCn1c(SCC(=O)Nc2ccc(F)c(Cl)c2)nc2scc(-c3ccccc3)c2c1=O', 'recombinant Falcipain-2 (FP-2) (Plasmodium falciparum, UniProt Q8I6U4)', 'criterion met'),
  ('NC(=O)c1c(NC(=O)CSc2nc3scc(-c4ccccc4)c3c(=O)n2-c2cccc(F)c2)sc2c1CCC2', 'recombinant Falcipain-2 (FP-2) (Plasmodium falciparum, UniProt Q8I6U4)', 'criterion not met'),
  ('NC(=O)c1c(NC(=O)CSc2nc3scc(-c4ccccc4)c3c(=O)n2C2CCCCC2)sc2c1CCC2', 'recombinant Falcipain-2 (FP-2) (Plasmodium falciparum, UniProt Q8I6U4)', 'criterion met');

Entry C=CCn1c(SCC(=O)Nc2sc(C(=O)OCC)c(C)c2C(N)=O)nc2scc(-c3ccccc3)c2c1=O : is its inhibition at 10 µM no less than 90%?
criterion not met

Is the recorded value of inhibition at 10 µM equal to or greater than 90% for this molecule? NC(=O)c1c(NC(=O)CSc2nc3scc(-c4ccccc4)c3c(=O)n2-c2ccc(Cl)cc2)sc2c1CCC2
criterion not met

For this molecule, is measured inhibition at 10 µM 90% or higher? NC(=O)c1c(NC(=O)CSc2nc3scc(-c4ccccc4)c3c(=O)n2Cc2ccccc2)sc2c1CCC2
criterion met

Entry C=CCn1c(SCC(=O)Nc2sc3c(c2C(=O)OCC)CCC3)nc2scc(-c3ccccc3)c2c1=O : is its inhibition at 10 µM no less than 90%?
criterion met

Hi, just wondering whether C=CCn1c(SCC(=O)Nc2sc3c(c2C(N)=O)CCC3)nc2scc(-c3cccc([N+](=O)[O-])c3)c2c1=O shows inhibition at 10 µM of 90% or higher.
criterion not met

Record C=CCn1c(SCC(=O)Nc2sc3c(c2C(N)=O)CCC3)nc2scc(-c3ccc(Cl)cc3)c2c1=O ; criterion: inhibition at 10 µM no lower than 90%. Met?
criterion not met

Please indicate if the recorded inhibition at 10 µM for C=CCn1c(SCC(=O)Nc2ccc(C(=O)OCC)cc2)nc2scc(-c3ccccc3)c2c1=O meets or exceeds 90%.
criterion met
